# credit: patent US11634404B2

TESTED_SYSTEM: D2 DAR (Homo sapiens (Human))
Format: cell-based
ASSAY_CONDITIONS: β-arrestin recruitment, antagonist
MEASUREMENT_TYPE: D2 IC50

COc1ccc(OCCN2CCN(S(=O)(=O)c3ccc(OC)cc3)CC2)cc1 | none
CCC(=O)N1CCN(CCOc2ccc(OC)cc2)CC1 | None
COc1cccc(OCCN2CCN(C(=O)c3cc4cc(OC)ccc4[nH]3)CC2)c1 [Compound 29] | None
O=C(c1cc2ccc(Cl)cc2[nH]1)N1CCN(CCOc2cccnc2)CC1 [Compound 78] | none
COc1ccc(OCCC2CCN(C(=O)c3cc4ccccc4[nH]3)CC2)cc1 | none

Ask: Would you mind telling me what D2 IC50 value was observed for Cn1c(C(=O)N2CCN(CCOc3cccnc3)CC2)cc2ccccc21 [Compound 81] ?
Reply: none

Ask: Would you mind telling me what D2 IC50 value was observed for O=C(c1cc2c(Cl)cccc2[nH]1)N1CCN(CCOc2cccnc2)CC1 [Compound 80] ?
Reply: none

Ask: Would you mind telling me what D2 IC50 value was observed for O=C(c1cc2ccccc2[nH]1)N1CCN(CCOc2ccc([N+](=O)[O-])cc2)CC1 ?
Reply: none

Ask: Would you mind telling me what D2 IC50 value was observed for O=C(c1cc2ccccc2[nH]1)N1CCN(CCOc2cncc(Cl)c2)CC1 [Compound 108] ?
Reply: none

Ask: Would you mind telling me what D2 IC50 value was observed for Cc1ccc2[nH]c(C(=O)N3CCN(CCOc4cccnc4)CC3)cc2c1 [Compound 75] ?
Reply: none

###

Tested on: HepG2 cells
TEST_NAME: Cytotoxicity screening panel, High Content Screening
Assay type: cell-based
ASSAY_CONDITIONS: DNA Structure, response direction ↑
MEASUREMENT_TYPE: AC50

Ask: Would you mind telling me what AC50 value was observed for COc1ccc(OCCN2CCN(C(=O)c3cc4ccccc4[nH]3)CC2)cc1 ?
Reply: > 50 µM

###

TESTED_SYSTEM: D2 DAR (Homo sapiens (Human), UniProt P14416)
Sequence (P14416 whole entry): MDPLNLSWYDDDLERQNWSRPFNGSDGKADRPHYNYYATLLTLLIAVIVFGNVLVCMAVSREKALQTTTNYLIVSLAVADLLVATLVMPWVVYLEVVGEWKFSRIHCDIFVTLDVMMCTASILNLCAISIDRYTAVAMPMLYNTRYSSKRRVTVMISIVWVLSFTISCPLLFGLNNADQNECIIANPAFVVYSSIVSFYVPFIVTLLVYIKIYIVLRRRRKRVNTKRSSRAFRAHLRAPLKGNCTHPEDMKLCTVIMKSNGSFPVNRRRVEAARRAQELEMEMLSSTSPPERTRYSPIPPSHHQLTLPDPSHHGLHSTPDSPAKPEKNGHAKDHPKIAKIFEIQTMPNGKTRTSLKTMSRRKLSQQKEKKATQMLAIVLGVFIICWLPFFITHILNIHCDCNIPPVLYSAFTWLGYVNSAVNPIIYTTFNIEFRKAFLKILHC
Assay type: cell-based
ASSAY_CONDITIONS: β-arrestin recruitment, agonist; 'curve' = wrapped cell 'curve interrupted'
MEASUREMENT_TYPE: D2 Emax

Completed entries (count: 5):
COc1ccc(OCCN2CCN(C(=O)c3cc4cc(Cl)ccc4[nH]3)CC2)cc1 | none
Cc1ccc(OCCN2CCN(C(=O)c3cc4ccccc4[nH]3)CC2)cc1 | curve
COc1ccc(OCCN2CCN(C(=O)c3cc4ccccc4[nH]3)CC2)cc1OC | none
COc1ccc(OCCN2CCN(C(=O)c3ccc(OC(F)(F)F)cc3)CC2)cc1 | none
COc1ccc(OCCN2CCN(S(=O)(=O)c3ccc(OC)cc3)CC2)cc1 | curve

Please examine the following record next.
Ask: Would you mind telling me what D2 Emax value was observed for O=C(c1cc2ccccc2[nH]1)N1CCN(CCOc2ccc3cc[nH]c3c2)CC1 ?
Reply: none

###

TESTED_SYSTEM: D3 DAR (Homo sapiens (Human), UniProt P35462)
Sequence (P35462 whole entry): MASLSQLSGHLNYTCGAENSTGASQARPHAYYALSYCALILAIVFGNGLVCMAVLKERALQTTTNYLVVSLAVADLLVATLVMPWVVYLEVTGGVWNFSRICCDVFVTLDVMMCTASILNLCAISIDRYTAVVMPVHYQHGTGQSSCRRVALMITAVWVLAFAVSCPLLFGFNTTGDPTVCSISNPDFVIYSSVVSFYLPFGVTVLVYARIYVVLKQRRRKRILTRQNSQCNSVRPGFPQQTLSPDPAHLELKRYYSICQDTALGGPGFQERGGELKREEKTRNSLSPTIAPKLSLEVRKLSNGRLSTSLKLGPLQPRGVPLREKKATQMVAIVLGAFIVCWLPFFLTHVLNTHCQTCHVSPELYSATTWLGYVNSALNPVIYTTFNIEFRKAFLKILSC
ASSAY_CONDITIONS: β-arrestin recruitment, agonist
pEC50: −log10 of the molar value.
Record TRUE whenever pEC50 is at 7 or higher; record FALSE when lower.

COc1ccc(OCCN2CCN(C(=O)c3cc4ccc(Cl)cc4[nH]3)CC2)cc1 | FALSE
COc1cccc(OCCN2CCN(C(=O)c3cc4cccnc4[nH]3)CC2)c1 [Compound 11] | TRUE
COc1cccc(OCCN2CCN(C(=O)c3cc4cccnc4[nH]3)CC2)c1 [Compound 68] | TRUE
COc1ccc(OCCN2CCN(C(=O)c3cc4ccccc4s3)CC2)cc1 | FALSE

Ask: State whether the measured pEC50 reaches 7, counting equality as reaching it, for COc1ccc(OCCN2CCN(C(=O)c3cc4cccc(C)c4[nH]3)CC2)cc1
Reply: FALSE

Ask: State whether the measured pEC50 reaches 7, counting equality as reaching it, for O=C(c1cc2ccccc2[nH]1)N1CCN(CCOc2cccnc2)CC1
Reply: TRUE
